Kb reference
# target.or.test.system: rabbit aortic rings (angiotensin II contraction) (Oryctolagus cuniculus, UniProt P34976)
# Construct: The thoracic aorta was removed, cleaned of adherent fat and connective tissue and then cut into 3-mm ring segments; from tissue; host or cells: rabbit thoracic aorta rings, endothelium removed
# Sequence (P34976 whole entry): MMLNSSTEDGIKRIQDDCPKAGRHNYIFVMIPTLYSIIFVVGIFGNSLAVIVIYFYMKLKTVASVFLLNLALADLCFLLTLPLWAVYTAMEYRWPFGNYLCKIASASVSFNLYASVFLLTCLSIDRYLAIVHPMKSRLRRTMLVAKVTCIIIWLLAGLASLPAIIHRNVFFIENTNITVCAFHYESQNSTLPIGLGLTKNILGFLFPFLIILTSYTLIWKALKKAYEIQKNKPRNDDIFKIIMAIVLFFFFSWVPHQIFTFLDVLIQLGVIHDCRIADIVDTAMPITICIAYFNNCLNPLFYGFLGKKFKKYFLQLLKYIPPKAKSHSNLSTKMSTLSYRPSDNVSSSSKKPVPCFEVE
# method.notes: Assay B: In Vitro Vascular Smooth Muscle Response for AII (rabbit aortic rings)
# Type: cell-based, rabbit (male New Zealand white)
# condition.context: rabbit aorta rings, antagonist 10^-5 M for 5 min, 37° C.; first of two values in the cell (rings from two rabbits); read-out: Assay B pA2 (converted)

>  <compound>
CCCCc1ncc2n1C(c1ccc(-c3ccccc3-c3nnn[nH]3)cc1)CCC2=CC(=O)O (stereo not drawn) [Example 16]

>  <target.or.test.system>
rabbit aortic rings (angiotensin II contraction) (Oryctolagus cuniculus, UniProt P34976)

>  <Kb, nM>
7.76

$$$$
>  <compound>
CCCCc1nc(CCCC)n2c1C(=O)CCC2c1ccc(-c2ccccc2-c2nn[nH]n2)cc1 (stereo not drawn) [Example 5]

>  <target.or.test.system>
rabbit aortic rings (angiotensin II contraction) (Oryctolagus cuniculus, UniProt P34976)

>  <Kb, nM>
13.8

$$$$
>  <compound>
CCCCc1ncc2n1[C@@H](c1ccc(-c3ccccc3-c3nn[nH]n3)cc1)CC[C@@H]2O (relative stereo) [Example 14]

>  <target.or.test.system>
rabbit aortic rings (angiotensin II contraction) (Oryctolagus cuniculus, UniProt P34976)

>  <Kb, nM>
331

$$$$
>  <compound>
CCCCc1ncc2n1C(c1ccc(-c3ccccc3-c3nn[nH]n3)cc1)CCC2=O (stereo not drawn) [Example 12]

>  <target.or.test.system>
rabbit aortic rings (angiotensin II contraction) (Oryctolagus cuniculus, UniProt P34976)

>  <Kb, nM>
219

$$$$
>  <compound>
CCCCc1ncc2n1[C@@H](c1ccc(-c3ccccc3-c3nn[nH]n3)cc1)CC[C@H]2CC(=O)O (relative stereo) [Example 20]

>  <target.or.test.system>
rabbit aortic rings (angiotensin II contraction) (Oryctolagus cuniculus, UniProt P34976)

>  <Kb, nM>
129

$$$$
>  <compound>
CCCCc1ncc2n1[C@@H](c1ccc(-c3ccccc3-c3nn[nH]n3)cc1)CC[C@H]2CC(=O)OC(C)(C)C (relative stereo) [Example 19]

>  <target.or.test.system>
rabbit aortic rings (angiotensin II contraction) (Oryctolagus cuniculus, UniProt P34976)

>  <Kb, nM>
70.8

$$$$
>  <compound>
CCCCc1ncc2n1C(c1ccc(-c3ccccc3-c3nnn[nH]3)cc1)CCC2=CC(=O)OC(C)(C)C (stereo not drawn) [Example 15]

>  <target.or.test.system>
rabbit aortic rings (angiotensin II contraction) (Oryctolagus cuniculus, UniProt P34976)

>  <Kb, nM>
347

$$$$
>  <compound>
CCCCc1nc(CCCC)n2c1C(NC(=O)CCC(=O)NN)CCC2c1ccc(-c2ccccc2-c2nn[nH]n2)cc1 (stereo not drawn) [Example 9]

>  <target.or.test.system>
rabbit aortic rings (angiotensin II contraction) (Oryctolagus cuniculus, UniProt P34976)

>  <Kb, nM>
70.8

$$$$
>  <compound>
CCCCc1ncc2n1C(c1ccc(-c3ccccc3-c3nnn[nH]3)cc1)CC=C2CC(=O)OC(C)(C)C (stereo not drawn) [Example 17]

>  <target.or.test.system>
rabbit aortic rings (angiotensin II contraction) (Oryctolagus cuniculus, UniProt P34976)

>  <Kb, nM>
16.2

$$$$
>  <compound>
CCCCc1nc(CCCC)n2c1C=C(Br)CC2c1ccc(-c2ccccc2-c2nnn[nH]2)cc1 (stereo not drawn) [Example 2]

>  <target.or.test.system>
rabbit aortic rings (angiotensin II contraction) (Oryctolagus cuniculus, UniProt P34976)

>  <Kb, nM>
1450

$$$$
>  <compound>
CCCCc1nc(CCCC)n2c1C(=NO)CCC2c1ccc(-c2ccccc2-c2nn[nH]n2)cc1 (stereo not drawn) [Example 21]

>  <target.or.test.system>
rabbit aortic rings (angiotensin II contraction) (Oryctolagus cuniculus, UniProt P34976)

>  <Kb, nM>
105

$$$$
>  <compound>
CCCCc1nc(CCCC)n2c1C=CCC2c1ccc(-c2ccccc2-c2nnn[nH]2)cc1 (stereo not drawn) [Example 1]

>  <target.or.test.system>
rabbit aortic rings (angiotensin II contraction) (Oryctolagus cuniculus, UniProt P34976)

>  <Kb, nM>
398

$$$$
>  <compound>
CCCCc1ncc2n1[C@@H](c1ccc(-c3ccccc3-c3nn[nH]n3)cc1)CC[C@H]2O (relative stereo) [Example 13]

>  <target.or.test.system>
rabbit aortic rings (angiotensin II contraction) (Oryctolagus cuniculus, UniProt P34976)

>  <Kb, nM>
100

$$$$
>  <compound>
CCCCc1nc(CCCC)n2c1C(O)CCC2c1ccc(-c2ccccc2-c2nnn[nH]2)cc1 (stereo not drawn) [Example 4]

>  <target.or.test.system>
rabbit aortic rings (angiotensin II contraction) (Oryctolagus cuniculus, UniProt P34976)

>  <Kb, nM>
22.4

$$$$
>  <compound>
CCCCc1nc(CCCC)n2c1CCCC2c1ccc(-c2ccccc2-c2nnn[nH]2)cc1 (stereo not drawn) [Example 3]

>  <target.or.test.system>
rabbit aortic rings (angiotensin II contraction) (Oryctolagus cuniculus, UniProt P34976)

>  <Kb, nM>
53.7

$$$$

====

# target.or.test.system: rabbit aortic rings (angiotensin II contraction) (Oryctolagus cuniculus)
# Construct: The thoracic aorta was removed, cleaned of adherent fat and connective tissue and then cut into 3-mm ring segments; from tissue; host or cells: rabbit thoracic aorta rings, endothelium removed
# method.notes: Assay B: In Vitro Vascular Smooth Muscle Response for AII (rabbit aortic rings)
# Type: cell-based, rabbit (male New Zealand white)
# condition.context: rabbit aorta rings, antagonist 10^-5 M for 5 min, 37° C.; second of two values in the cell (rings from two rabbits); read-out: Assay B pA2 (converted)
# note: exactly 200 nM is not below, so it is NO; use YES for Kb strictly under it

>  <molecule>
CCCCc1nc(CCCC)n2c1C=C(Br)CC2c1ccc(-c2ccccc2-c2nnn[nH]2)cc1 (stereo not shown)

>  <classification>
NO

$$$$
>  <molecule>
CCCCc1ncc2n1C(c1ccc(-c3ccccc3-c3nnn[nH]3)cc1)CCC2=CC(=O)OC(C)(C)C (stereo not shown)

>  <classification>
YES

$$$$
>  <molecule>
CCCCc1ncc2n1C(c1ccc(-c3ccccc3-c3nn[nH]n3)cc1)CCC2=O (stereo not shown)

>  <classification>
YES

$$$$
>  <molecule>
CCCCc1nc(CCCC)n2c1C(=O)CCC2c1ccc(-c2ccccc2-c2nn[nH]n2)cc1 (stereo not shown)

>  <classification>
YES

$$$$
>  <molecule>
CCCCc1nc(CCCC)n2c1CCCC2c1ccc(-c2ccccc2-c2nnn[nH]2)cc1 (stereo not shown)

>  <classification>
NO

$$$$
>  <molecule>
CCCCc1ncc2n1C(c1ccc(-c3ccccc3-c3nnn[nH]3)cc1)CC=C2CC(=O)OC(C)(C)C (stereo not shown)

>  <classification>
YES

$$$$
>  <molecule>
CCCCc1ncc2n1[C@@H](c1ccc(-c3ccccc3-c3nn[nH]n3)cc1)CC[C@@H]2O (relative stereo)

>  <classification>
NO

$$$$
